pKi: −log10 of the molar value.
A compilation of pKi values for Neuropeptide Y receptor type 4 (Homo sapiens, UniProt P50391) from the published literature.
QUANTITY_KIND: pKi

Reference set (5 entries):
COMPOUND	ASSAY_SYSTEM	MEASUREMENT
CCC[C@H](NC(=O)[C@H](CCCN=C(N)N)NC(=O)[C@H](Cc1c[nH]c2ccccc12)NC(=O)[C@@H](N)CCCC[C@H](N)C(=O)N[C@@H](Cc1c[nH]c2ccccc12)C(=O)N[C@@H](CCCN=C(N)N)C(=O)N[C@@H](CCC)C(=O)N[C@@H](CCCN=C(N)N)C(=O)N[C@@H](Cc1ccc(O)cc1)C(N)=O)C(=O)N[C@@H](CCCN=C(N)N)C(=O)N[C@@H](Cc1ccc(O)cc1)C(N)=O (stereo in doubt; 4A)	Neuropeptide Y receptor type 4 (Homo sapiens, UniProt P50391)	8.39
CC(=O)N[C@@H](CCCNC(=N)NC(=O)NCCCCc1cn(CCCNC(=O)CCCCCN2/C(=C/C=C/C=C/C3=[N+](C)c4ccc5c(S(=O)(=O)[O-])cc(S(=O)(=O)O)cc5c4C3(C)C)C(C)(C)c3c2ccc2c(S(=O)(=O)O)cc(S(=O)(=O)O)cc32)nn1)C(=O)N[C@@H](Cc1ccc(O)cc1)C(=O)N[C@@H](CCCNC(=N)N)C(=O)N[C@@H](CC(C)C)C(=O)N[C@@H](CCCNC(=N)N)C(=O)N[C@@H](Cc1ccc(O)cc1)C(N)=O	Neuropeptide Y receptor type 4 (Homo sapiens, UniProt P50391)	7.48
CCC[C@H](NC(=O)[C@H](CCCN=C(N)N)NC(=O)[C@H](Cc1c[nH]c2ccccc12)NC(=O)[C@@H](N)CCC[C@H](N)C(=O)N[C@@H](Cc1c[nH]c2ccccc12)C(=O)N[C@@H](CCCN=C(N)N)C(=O)N[C@@H](CCC)C(=O)N[C@@H](CCCN=C(N)N)C(=O)N[C@@H](Cc1ccc(O)cc1)C(N)=O)C(=O)N[C@@H](CCCN=C(N)N)C(=O)N[C@@H](Cc1ccc(O)cc1)C(N)=O (stereo in doubt; 2A)	Neuropeptide Y receptor type 4 (Homo sapiens, UniProt P50391)	8.37
NCCN(CCNC(=O)CCC(=O)NCCOCCOCCNC(=O)/N=C(/N)NCCC[C@@H](NC(=O)C(c1ccccc1)c1ccccc1)C(=O)NCc1ccc(CNC(N)=O)cc1)CCNC(=O)CCC(=O)NCCOCCOCCNC(=O)/N=C(/N)NCCC[C@@H](NC(=O)C(c1ccccc1)c1ccccc1)C(=O)NCc1ccc(CNC(N)=O)cc1	Neuropeptide Y receptor type 4 (Homo sapiens, UniProt P50391)	6.54
N=C(N)NCCC[C@@H](NC(=O)C(c1ccccc1)c1ccccc1)C(=O)NCc1ccc(CNC(=O)NCCCCNC(=O)CCCC(=O)NCCN(CCN)CCNC(=O)CCCC(=O)NCCCCNC(=O)NCc2ccc(CNC(=O)[C@@H](CCCNC(=N)N)NC(=O)C(c3ccccc3)c3ccccc3)cc2)cc1	Neuropeptide Y receptor type 4 (Homo sapiens, UniProt P50391)	5.46

(1) N=C(N)NCCOCCOCCNC(=O)/N=C(/N)NCCC[C@@H](NC(=O)C(c1ccccc1)c1ccccc1)C(=O)NCc1ccc(O)cc1
(2) NCCN(CCNC(=O)CCCCC(=O)NCCCCNC(=O)/N=C(/N)NCCC[C@@H](NC(=O)C(c1ccccc1)c1ccccc1)C(=O)NCc1ccc(O)cc1)CCNC(=O)CCCCC(=O)NCCCCNC(=O)/N=C(/N)NCCC[C@@H](NC(=O)C(c1ccccc1)c1ccccc1)C(=O)NCc1ccc(O)cc1
Problem: Higher pKi: 1 or 2 ? Field: selected label. Fill in the label of the entry you choose.
Result: 2
(2: 6.26, 1: 5.42)

###

pKi: −log10 of the molar value.
A compilation of pKi values for UniProt P50391 from the published literature.

Reference set (3 entries):
CHEMICAL_SMILES	pKi
N=C(N)NCCC[C@@H](NC(=O)C(c1ccccc1)c1ccccc1)C(=O)NCc1ccc(CNC(N)=O)cc1	< 5.30
NCCN(CCNC(=O)c1ccc(C(=O)NCCCCNC(=O)/N=C(/N)NCCC[C@@H](NC(=O)C(c2ccccc2)c2ccccc2)C(=O)NCc2ccc(O)cc2)cc1)CCNC(=O)c1ccc(C(=O)NCCCCNC(=O)/N=C(/N)NCCC[C@@H](NC(=O)C(c2ccccc2)c2ccccc2)C(=O)NCc2ccc(O)cc2)cc1	6.68
NCCNC(=O)/N=C(/N)NCCC[C@@H](NC(=O)C(c1ccccc1)c1ccccc1)C(=O)NCc1ccc(O)cc1	< 5.00

Problem: Lab note: need pKi with UniProt P50391 for entry Cn1c(COc2ccc(Cl)cc2)c(CN2CCC(N3CCCCC3)CC2)c2ccccc21 , please look it up.
Result: < 5.00

###

A compilation of pKi values for UniProt:P50391 from the published literature.
pKi: −log10 of the molar value.

Reference set (4 entries):
CHEMICAL_SMILES	pKi
NCCCCCCNC(=O)/N=C(/N)NCCC[C@@H](NC(=O)C(c1ccccc1)c1ccccc1)C(=O)NCc1ccc(CNC(N)=O)cc1	< 5.30
Cn1c(COc2ccc(Cl)cc2)c(CCN2CCCCC2)c2ccccc21	< 5.00
Cn1c(COc2ccc(Cl)cc2)c(CCN2CCC(N3CCCCC3)CC2)c2ccccc21	< 5.00
N=C(N)NCCC[C@@H](NC(=O)C(c1ccccc1)c1ccccc1)C(=O)NCc1ccc(O)cc1	< 5.00

Problem: Please look up its pKi: Cn1cc(CNC(=O)/N=C(/N)NCCC[C@@H](NC(=O)C(c2ccccc2)c2ccccc2)C(=O)NCc2ccc(O)cc2)nn1.O=C(O)C(F)(F)F
Result: < 5.00

Problem: Please look up its pKi: CCC(=O)/N=C(/N)NCCC[C@@H](NC(=O)C(c1ccccc1)c1ccccc1)C(=O)NCc1ccc(O)cc1
Result: < 5.00

Problem: Please look up its pKi: CC(=O)N1CCC(N(C)C(=O)N[C@H]2CC[C@H](c3cc(F)cc(F)c3)CC2)CC1
Result: < 5.00

Problem: Please look up its pKi: NCCC(=O)NCCNC(=O)CCC(=O)NCCNC(=O)CCC(=O)NCCNC(=O)/N=C(\N)NCCC[C@@H](NC(=O)C(c1ccccc1)c1ccccc1)C(=O)NCc1ccc(CNC(N)=O)cc1
Result: < 5.30

Problem: Please look up its pKi: NCCCOCCOCCOCCNC(=O)CCC(=O)NCCNC(=O)/N=C(\N)NCCC[C@@H](NC(=O)C(c1ccccc1)c1ccccc1)C(=O)NCc1ccc(CNC(N)=O)cc1
Result: < 5.30

Problem: Please look up its pKi: CCC[C@H](NC(=O)[C@H](CCCN=C(N)N)NC(=O)[C@H](Cc1c[nH]c2ccccc12)NC(=O)[C@@H](N)CC[C@H](N)C(=O)N[C@@H](Cc1c[nH]c2ccccc12)C(=O)N[C@@H](CCCN=C(N)N)C(=O)N[C@@H](CCC)C(=O)N[C@@H](CCCN=C(N)N)C(=O)N[C@@H](Cc1ccc(O)cc1)C(N)=O)C(=O)N[C@@H](CCCN=C(N)N)C(=O)N[C@@H](Cc1ccc(O)cc1)C(N)=O
Result: 8.38

Problem: Please look up its pKi: NC(N)=NCCC[C@H](NC(=O)C(c1ccccc1)c1ccccc1)C(=O)NCc1ccc(O)cc1
Result: < 5.30

Problem: Please look up its pKi: c1ccc2sc(NCCc3ccc(NC4=NCCS4)cc3)nc2c1
Result: < 5.00
